# ASSAY_SUMMARY: Phase I first-in-human study: pharmacokinetics
# Assay type: in vivo
# CONDITION_PARAMETERS: human, plasma, po, 37.5 mg/day, T max, patients, oral 37.5 mg/day, Day 28 (n = 5), mean ± SD
MEASUREMENT_LABEL: Tmax (h)
Numbers only here, please. The scale is h.

Req: Any idea what Tmax was measured for Cc1ccsc1C(=O)Nc1cc(CN2CCN(C(=O)CO)CC2)ccc1/C=C/c1n[nH]c2ccccc12 ?
Resp: 1.99

* * *

# ASSAY_SUMMARY: Phase I first-in-human study: pharmacokinetics
# Type: in vivo
# CONDITION_PARAMETERS: human, plasma, po, 37.5 mg/day, t 1/2, patients, oral 37.5 mg/day, Day 1, n = 5, mean ± SD
MEASUREMENT_LABEL: half-life
A complete answer gives the number and then names the unit.

Req: Any idea what half-life was measured for Cc1ccsc1C(=O)Nc1cc(CN2CCN(C(=O)CO)CC2)ccc1/C=C/c1n[nH]c2ccccc12 [KW‐2450] ?
Resp: 10.1 h
